Values were extracted from PubChem BioAssay.

Assay: RPMI8226 myeloma cell viability, profiling panel, resazurin fluorescence, basal, 24 h, PK04 Diversity Set (AID 1180);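 note: RPMI8826 multiple myeloma cell line at 5000 cells per well; test concentration not given here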
Details: higher = more signal
assay endpoint: z-score

Reference set, count: 2
CO[C@H]1O[C@H](CO)[C@@H](OC(=O)Nc2ccccc2)[C@@H]2OC(=O)[C@@H](Cc3ccccc3)C/C=C/C[C@H](Cc3ccccc3)C(=O)O[C@@H]12 :: -0.381
C=CCNC(=O)[C@H]1[C@@H]2C(=O)O[C@@H](c3ccccc3)[C@@H](c3ccccc3)N2[C@@H](c2ccc(O)cc2)[C@]12C(=O)N(C(=O)OCCOC)c1ccc(C#Cc3ccc(OC)cc3)cc12 :: -0.772

Answer with the recorded z-score for the compound listed here: `COCCOC(=O)N1C(=O)[C@@]2(c3cc(C#CCC(C(=O)OC)C(=O)OC)ccc31)[C@H](C(N)=O)[C@H]1C(=O)O[C@H](c3ccccc3)[C@H](c3ccccc3)N1[C@@H]2c1ccccc1OCCO`
-5.51

Answer with the recorded z-score for the compound listed here: `Cc1ccc(S(=O)(=O)N2[C@@H](c3ccccc3)C(C(=O)O)=C[C@H]2C(C)(C)C)cc1`
-2.03

Answer with the recorded z-score for the compound listed here: C=C(C)C1CN([C@H](CO)c2ccccc2)C(=O)/C1=C\c1ccccc1 (stereo not given in full)
0.064

Answer with the recorded z-score for the compound listed here: `COCCOC(=O)N1C(=O)[C@@]2(c3cc(C#CCCO)ccc31)[C@H](c1ccc(O)cc1)N1[C@H](c3ccccc3)[C@H](c3ccccc3)OC(=O)[C@H]1[C@@H]2C(=O)NC[C@H](O)c1ccccc1`
1.2

Answer with the recorded z-score for the compound listed here: O=C1C2C=CC(C(O)C3CCCCC3)N(Nc3ccccc3F)C2C(=O)N1c1ccccc1 (stereo not given)
-0.14

----------
z-score values for the compounds below.
Experiment: adipocyte viability effects, profiling panel, cell-based, 3T3-L1 adipocytes, calcein-AM fluorescence, 48 h, basal (AID 1163); note: test concentration not given here
Settings: 3T3-L1 adipocytes viability, higher = more signal
Give the figure by itself; no unit, no explanation.

Answer with the recorded z-score for the compound listed here: `O=C1O[C@H](c2ccccc2)[C@H](c2ccccc2)N2[C@H]1[C@@H](C(=O)Nc1nc3ccccc3s1)[C@]1(C(=O)Nc3ccccc31)[C@H]2c1ccccc1OCCO`
0.842

Answer with the recorded z-score for the compound listed here: CCOC(=O)C1=CCC(c2cccn2C(=O)OC(C)(C)C)N(S(=O)(=O)c2ccc(C)cc2)C1 (stereo not drawn)
-0.838

Answer with the recorded z-score for the compound listed here: `C=CCNC(=O)[C@@H]1[C@H]2C(=O)O[C@H](c3ccccc3)[C@H](c3ccccc3)N2[C@H](c2ccc(OCCO)cc2)[C@@]12C(=O)Nc1ccc(C#CC3=CCCCC3)cc12`
0.73

Answer with the recorded z-score for the compound listed here: `CN(C)CCCCNC(=O)[C@H]1C[C@H]2C(=O)N[C@@H](CCCCN(C)C)C(=O)N2[C@H]1c1ccc(O)cc1`
0.613

Answer with the recorded z-score for the compound listed here: `O=C1O[C@H](c2ccccc2)[C@H](c2ccccc2)N2[C@H]1[C@@H](C(=O)O)[C@]1(C(=O)Nc3ccccc31)[C@H]2c1ccc(OCCO)cc1`
1.11

Answer with the recorded z-score for the compound listed here: `O=C(O)C1=CC[C@H]2C(=O)N(c3ccccc3)C(=O)[C@@H]12`
-0.261

Answer with the recorded z-score for the compound listed here: `C=CCNC(=O)[C@@H]1[C@H]2C(=O)O[C@H](c3ccccc3)[C@H](c3ccccc3)N2[C@H](c2ccc(OCCO)cc2)[C@@]12C(=O)Nc1ccc(C#CCNC(N)=O)cc12`
0.274

Answer with the recorded z-score for the compound listed here: C[C@]12C(=O)N(CCO)[C@@H]3C(=O)N(c4ccc(Cl)cc4)CC=CC31O[C@@H]1/C=C\CCCOC(=O)C12 (stereo partly drawn)
1.38
